Molecular target: C. neoformans Hsp90 NBD (Cryptococcus neoformans, UniProt J9VVA4)
Sequence (J9VVA4 1-699): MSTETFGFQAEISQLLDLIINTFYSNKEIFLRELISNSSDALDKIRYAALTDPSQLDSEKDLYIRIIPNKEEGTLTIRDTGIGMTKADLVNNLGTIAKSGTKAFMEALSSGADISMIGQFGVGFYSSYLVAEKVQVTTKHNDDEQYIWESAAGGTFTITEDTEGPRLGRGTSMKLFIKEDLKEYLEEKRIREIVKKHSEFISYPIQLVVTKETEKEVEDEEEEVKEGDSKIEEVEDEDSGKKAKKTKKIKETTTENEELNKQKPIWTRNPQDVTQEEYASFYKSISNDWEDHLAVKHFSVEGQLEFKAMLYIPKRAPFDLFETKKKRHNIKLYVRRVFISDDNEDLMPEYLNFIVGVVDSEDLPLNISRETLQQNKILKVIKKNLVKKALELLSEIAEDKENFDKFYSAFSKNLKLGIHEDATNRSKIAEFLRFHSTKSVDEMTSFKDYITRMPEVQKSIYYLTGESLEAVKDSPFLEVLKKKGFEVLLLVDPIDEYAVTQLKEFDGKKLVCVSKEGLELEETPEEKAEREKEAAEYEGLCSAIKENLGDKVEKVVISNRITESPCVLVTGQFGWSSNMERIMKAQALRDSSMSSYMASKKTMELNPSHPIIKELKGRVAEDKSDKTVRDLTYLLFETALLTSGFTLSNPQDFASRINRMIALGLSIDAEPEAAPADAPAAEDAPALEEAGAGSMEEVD
Assay: Protein thermal shift assay, C. neoformans Hsp90 NBD
Type: binding
Settings: equimolar protein and ligand (10 μM)
measured_metric: C. neoformans NBD ΔTm (°C)

COc1ccc(Cn2nc(-c3ccccc3)cc2Nc2cc(O)cc(O)c2C(=O)N2Cc3ccc(F)cc3C2)cc1: 14
Cn1nc(-c2ccccc2)cc1Nc1cc(O)cc(O)c1C(=O)N1Cc2ccccc2C1: 11
COc1ccc(Cn2nc(-c3ccccc3)cc2Nc2cc(O)cc(O)c2C(=O)N2Cc3ccccc3C2)cc1: 14
COc1ccc(Cn2nc(C(C)(C)C)cc2Nc2cc(O)cc(O)c2C(=O)N2Cc3ccccc3C2)cc1: 14
COc1ccc(Cn2nc(-c3ccccc3)cc2Nc2cc(O)cc(O)c2C(=O)N2Cc3cccc(F)c3C2)cc1: 12

[1] CC(C)c1cc(Nc2cc(O)cc(O)c2C(=O)N2Cc3ccccc3C2)n(C)n1
[2] Cn1nc(-c2ccc(C(C)(C)C)cc2)cc1Nc1cc(O)cc(O)c1C(=O)N1Cc2ccccc2C1
[3] Cn1nc(-c2ccc(C(F)(F)F)cc2)cc1Nc1cc(O)cc(O)c1C(=O)N1Cc2ccccc2C1
Descending sort on C. neoformans NBD ΔTm required. Put the labels in the requested order and list them out.
1, 3, 2
